- assay: HPLC membrane binding on immobilized artificial membrane IAM.PC
- Type: physicochemical
- experimental-parameters: Ln weighted, Table 3
readout-type: Membrane affinity IAM.PC
Returns: the value as a bare number; no unit string appended.

compound | Membrane affinity IAM.PC
COc1cc(CC(C)N)c(OC)cc1I (centres unmarked) | 2.61
CC(N)Cc1ccc2c(c1)OCO2 (centres unmarked) | 0.298
COc1cc(CCN)cc(OC)c1OC | −0.477

Reported Membrane affinity IAM.PC for COc1cc(CC(C)N)c(OC)cc1Br (centres unmarked) was 2.07

Reported Membrane affinity IAM.PC for `CN(C)CCc1c[nH]c2cccc(O)c12` was 0.900

###

- assay: HPLC membrane binding on immobilized artificial membrane IAM.PE
- Type: physicochemical
- experimental-parameters: Table 1
- Protocol: The analysis is made by pattern matching membrane binding constants measured on immobilized artificial membrane columns in a high performance liquid chromatography system. Two or more immobilized artificial membrane chromatographic columns are used. Each test compound is injected and chromatographed on each column and the peak width and the peak time of the test compound is recorded and normalized to an internal or external standard. […]
readout-type: Membrane binding properties IAM.PE
Returns: the value as a bare number; no unit string appended.

The cases that follow already have their Membrane binding properties IAM.PE on record.
compound | Membrane binding properties IAM.PE
COc1cc(C[C@@H](C)N)c(OC)cc1I [(R)-2,5-dimethoxy-4-iodoamphetamine] | 29.76
CN(C)CCc1c[nH]c2cccc(O)c12 [psilocin] | 4.818
COc1cc(CC(C)N)c(OC)cc1Br (stereo not drawn) [2,5-dimethoxy-4-bromoamphetamine] | 20.950
COc1cc(CCN)cc(OC)c1OC [mescaline] | 2.134
COc1cc(CCNC(C)=O)cc(OC)c1OC [n-acetylmescaline] | 1.323

Now turn to the next compound.
Reported Membrane binding properties IAM.PE for CC(N)Cc1ccc(I)cc1 (stereo not drawn) [p-iodoamphetamine] was 33.660

###

- assay: HPLC membrane binding on immobilized artificial membrane IAM.PE
- Format: physicochemical
- experimental-parameters: Ln weighted, Table 3
Reported Membrane affinity IAM.PE by item:
Returns: the value as a bare number; no unit string appended.

compound | readout-type | meas-value
CN(C)CCc1c[nH]c2cccc(O)c12 [psilocin] | Membrane affinity IAM.PE | 1.79
COc1cc(CCN)cc(OC)c1OC [mescaline] | Membrane affinity IAM.PE | 0.670

Reported Membrane affinity IAM.PE for COc1cc(CC(C)N)c(OC)cc1Br (centres unmarked) [2,5-dimethoxy-4-bromoamphetamine] was 3.22

Reported Membrane affinity IAM.PE for COc1cc(CC(C)N)c(OC)cc1I (centres unmarked) [DOI] was 3.73

Reported Membrane affinity IAM.PE for CC(N)Cc1ccc2c(c1)OCO2 (centres unmarked) [MDA, 3,4-methylendioxyamphetamine] was 1.32

###

- assay: HPLC membrane binding on immobilized artificial membrane IAM.PC
- Assay type: physicochemical
- experimental-parameters: Table 1
# cutoff 1 applies to Membrane binding properties IAM.PC; >= gives true, < gives false

molecule | label
COc1cc(CCN)cc(OC)c1OC | true
CN(C)CCc1c[nH]c2cccc(O)c12 | true
COc1cc(CCNC(C)=O)cc(OC)c1OC | false

Task: Is Membrane binding properties IAM.PC at least 1? Consider CC(N)Cc1ccc(I)cc1 (stereo not drawn)
Output: true

Task: Is Membrane binding properties IAM.PC at least 1? Consider COc1cc(CC(C)N)c(OC)cc1Br (stereo not drawn)
Output: true

Task: Is Membrane binding properties IAM.PC at least 1? Consider COc1cc(C[C@@H](C)N)c(OC)cc1I [(R)-2,5-dimethoxy-4-iodoamphetamine]
Output: true

###

- assay: HPLC membrane binding on immobilized artificial membrane IAM.SM
- Assay type: physicochemical
- experimental-parameters: Table 1
# cutoff 8 applies to Membrane binding properties IAM.SM; >= gives YES, < gives NO

Illustrative cases are given below, each with its answer.
compound | label
COc1cc(CCNC(C)=O)cc(OC)c1OC [n-acetylmescaline] | NO
CN(C)CCc1c[nH]c2cccc(O)c12 [psilocin] | NO

Task: Is Membrane binding properties IAM.SM at least 8? Consider COc1cc(CCN)cc(OC)c1OC [mescaline]
Output: NO

Task: Is Membrane binding properties IAM.SM at least 8? Consider CC(N)Cc1ccc(I)cc1 (stereo not drawn) [p-iodoamphetamine]
Output: YES

Task: Is Membrane binding properties IAM.SM at least 8? Consider COc1cc(C[C@@H](C)N)c(OC)cc1I [(R)-2,5-dimethoxy-4-iodoamphetamine]
Output: YES

Task: Is Membrane binding properties IAM.SM at least 8? Consider COc1cc(CC(C)N)c(OC)cc1Br (stereo not drawn) [2,5-dimethoxy-4-bromoamphetamine]
Output: YES
